Lab note: K app readings collected with Nucleic Acid for the following compounds.
Reported Endpoint: K app

Below, each entry is followed by its recorded K app result.
Test Smiles	Reported Endpoint	Reported Result
COc1ccc2c(c1)c(=O)c1c(NCCN(C)C)ccc3c(=O)n(CCN(C)C)c(=O)n2c31	K app	7.3e-08
CN(C)CCNc1ccc2c(=O)n(CCN(C)C)c(=O)n3c4cc(O)c(O)cc4c(=O)c1c23	K app	5.6e-08
Br.Br.CN(C)CCNc1ccc2c(=O)n(CCN(C)C)c(=O)n3c4ccc(O)cc4c(=O)c1c23	K app	7.9e-08

I: CN(C)CCn1c(=O)c2ccc(NCCNCCO)c3c(=O)c4ccccc4n(c1=O)c23
II: CN(C)CCn1c(=O)c2ccc(NCCN)c3c(=O)c4ccccc4n(c1=O)c23
QUERY: Which value of K app is smaller, the one for I or the one for II ? Answer with the label corresponding to your selection.
RESULT: I
(I: 3.5e-08, II: 6.6e-08)
